Hey, just so you know, these numbers are from patent US20250289893A1.

ASSAYED TARGET: T1, human CD1b expressed on HEK-293 cells (human, UniProt P29016 18-333; P61769 21-119)
T1 construct: also called HEK - CD1b
ASSAY INFO: flow cytometry, HEK-293 cells, 0.316 µg/ml antibody
Fluorescence Intensity Geomean (normalized to background) overview
Field format: number, assumed fold over background, no unit text.

Give Fluorescence Intensity Geomean (normalized to background) for the following binder: 111 (VR12113) (antibody, V domains shown, also called OX111) VH: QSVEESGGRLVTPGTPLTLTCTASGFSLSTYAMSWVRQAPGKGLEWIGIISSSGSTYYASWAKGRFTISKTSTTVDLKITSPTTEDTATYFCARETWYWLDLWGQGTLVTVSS VL: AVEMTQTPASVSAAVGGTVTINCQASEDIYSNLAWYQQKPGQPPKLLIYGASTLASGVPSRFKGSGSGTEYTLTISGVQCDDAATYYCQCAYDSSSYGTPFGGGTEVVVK
1

Given the binder 77A (VR11851) (antibody, V domains shown, also called OX77a; antibody 77a) VH: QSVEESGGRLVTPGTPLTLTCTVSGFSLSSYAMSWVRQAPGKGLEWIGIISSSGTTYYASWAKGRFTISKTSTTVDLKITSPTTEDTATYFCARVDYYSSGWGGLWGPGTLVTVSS VL: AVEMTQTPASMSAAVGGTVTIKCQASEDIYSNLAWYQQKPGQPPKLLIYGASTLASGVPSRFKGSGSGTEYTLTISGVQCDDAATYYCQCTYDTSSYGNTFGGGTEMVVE , write its reported Fluorescence Intensity Geomean (normalized to background).
1.1

Give the measured Fluorescence Intensity Geomean (normalized to background) for 116 (VR12117) (antibody, V domains shown, also called OX116) VH: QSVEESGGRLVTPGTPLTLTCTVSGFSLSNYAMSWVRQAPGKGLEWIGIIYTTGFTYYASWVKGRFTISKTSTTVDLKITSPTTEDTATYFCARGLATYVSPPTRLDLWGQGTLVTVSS VL: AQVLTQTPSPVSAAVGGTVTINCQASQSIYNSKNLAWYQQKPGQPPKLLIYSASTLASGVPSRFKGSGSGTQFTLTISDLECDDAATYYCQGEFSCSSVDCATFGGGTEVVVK
1

Attention now turns to another entry.
Determine its reported Fluorescence Intensity Geomean (normalized to background): 110 (VR12112) (antibody, V domains shown, also called OX110; antibody 110) VH: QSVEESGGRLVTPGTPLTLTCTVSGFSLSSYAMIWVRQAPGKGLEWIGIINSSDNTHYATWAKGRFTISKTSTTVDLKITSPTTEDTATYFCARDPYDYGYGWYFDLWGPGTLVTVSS VL: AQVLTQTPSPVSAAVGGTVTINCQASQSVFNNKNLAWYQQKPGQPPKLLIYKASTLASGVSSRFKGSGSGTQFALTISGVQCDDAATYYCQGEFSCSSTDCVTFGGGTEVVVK
1
